System: GH3-TRE-Luc cell line
conditionDescription: read-out: AC50 (uM) modified / 1000; Tox21_110001=Tox21_202309; viability, 1 nM T3 present, 24 h
measurementKind: CC50 (µM)
Numbers only, in µM.

Write down CC50 measured for item CC(C)(C)c1cc(O)ccc1O [tert-Butylhydroquinone]
64.9

----------
Tested on: GH3-TRE-Luc cell line
conditionDescription: read-out: AC50 (uM) modified / 1000; Tox21_110001=Tox21_110901; viability, 1 nM T3 present, 24 h
measurementKind: CC50

Please supply the value of reported CC50 for the item CC[C@H]1CN2CCc3cc(OC)c(OC)cc3[C@@H]2C[C@@H]1C[C@H]1NCCc2cc(OC)c(OC)cc21 [Emetine]
0.0872 µM

----------
assayComment: in vitro
conditionDescription: rat, gh3-tre-luc cells, AC50 (uM) modified / 1000, Tox21_110001=Tox21_303018; viability, 1 nM T3 present, 24 h
measurementKind: CC50 at 24 h (µM)
One number for each entry, in µM.

Let me know recorded CC50 at 24 h for NNc1ccccc1 [Phenylhydrazine] , thanks.
42

----------
assayComment: in vitro
conditionDescription: rat, gh3-tre-luc cells, AC50 (uM) modified / 1000
Structures can show the parent of a compound that is named as a salt.
Exercise: for every item that follows, state its recorded CC50 at 24 h.

For each entry beneath this line, provide reported CC50 at 24 h.
1. C=CCNCC=C
2. O=C(O)COc1cc(Cl)c(Cl)cc1Cl
3. CN(C)CCCN1c2ccccc2Sc2ccc(Cl)cc21 [Chlorpromazine hydrochloride]
4. CCC(C)(O)CCCC(C)C (stereo not shown)
5. CCOc1ccc(C(=O)OCCN(CC)CC)cc1
6. CC(C)(O)c1ccccc1
7. CCC(C)(C)C1CCC(=O)CC1

> 90 µM
> 90 µM
10.6 µM
> 90 µM
> 50 µM
> 90 µM
> 90 µM

Batch: CC50 at 24 h for all items listed.
1. O=C(O)CC(=O)C(=O)O
2. NC(=S)NNC(N)=S
3. CC1COC(Cn2cncn2)(c2ccc(Oc3ccc(Cl)cc3)cc2Cl)O1 (stereo not shown)

["> 90 µM", "> 90 µM", "41.3 µM"]

Can you give me CC50 at 24 h for all of these, one by one?
1. CC(=O)c1ccc2c(c1)N(CCCN1CCN(CCO)CC1)c1ccccc1S2 [Acetophenazine dimaleate]
2. CCN(Cc1ccccc1)c1ccccc1
3. CCCCCCCCN(C)C
4. Cc1ccc2c(C)cccc2c1

1. 16.5 µM
2. > 90 µM
3. > 90 µM
4. > 90 µM

Give CC50 at 24 h for all compounds that follow.
1. Cc1ccc(N)c(C)c1
2. CCCCOc1ccc(C(=O)CCN2CCCCC2)cc1 [Dyclonine hydrochloride]
3. c1ccc2scnc2c1
4. COc1ccc(C(C)=O)cc1
5. Cc1cc(Cc2cc(C)cc(C(C)(C)C)c2O)c(O)c(C(C)(C)C)c1
6. CCCCC(CC)COC(=O)/C=C\C(=O)OCC(CC)CCCC (stereo not shown) [Bis(2-ethylhexyl) maleate]
7. CC(=O)c1ccccn1
8. C=CCSSCCC [Allyl propyl disulfide]

1. > 90 µM
2. 4.72 µM
3. > 90 µM
4. > 90 µM
5. 11.5 µM
6. > 90 µM
7. > 90 µM
8. > 90 µM

----------
assayComment: in vitro
conditionDescription: rat, gh3-tre-luc cells, AC50 (uM) modified / 1000, Tox21_110001=Tox21_201705; viability, 1 nM T3 present, 24 h
measurementKind: CC50 at 24 h

Look up and report measured CC50 at 24 h for this entry: CN1C[C@H](C(=O)N[C@]2(C)O[C@@]3(O)[C@@H]4CCCN4C(=O)[C@H](Cc4ccccc4)N3C2=O)C=C2c3cccc4[nH]cc(c34)C[C@H]21 [Ergotamine D-tartrate]
> 90 µM

----------
assayComment: in vitro
conditionDescription: rat, gh3-tre-luc cells, AC50 (uM) modified / 1000, Tox21_110001=Tox21_111116; viability, 1 nM T3 present, 24 h
measurementKind: CC50 at 24 h

Give recorded CC50 at 24 h. Cc1cc(O)ccc1Cl [4-Chloro-3-methylphenol]
> 50 µM

----------
assayComment: in vitro
conditionDescription: rat, gh3-tre-luc cells, AC50 (uM) modified / 1000, Tox21_110001=Tox21_110973; viability, 1 nM T3 present, 24 h
measurementKind: CC50 at 24 h

# return recorded CC50 at 24 h for entry `C[C@H]1CCC[C@H](O)CCCCCc2cc(O)cc(O)c2C(=O)O1`
> 50 µM

----------
Tested on: GH3-TRE-Luc cell line
conditionDescription: read-out: AC50 (uM) modified / 1000; Tox21_110001=Tox21_112084; viability, 1 nM T3 present, 24 h
measurementKind: CC50 (µM)
Numbers only, in µM.

Using the record for `CC(C)(C)CC(C)(C)c1ccc(O)cc1` , state its measured CC50.
22.4

----------
assayComment: in vitro
conditionDescription: rat, gh3-tre-luc cells, AC50 (uM) modified / 1000, Tox21_110001=Tox21_301580; viability, 1 nM T3 present, 24 h
measurementKind: CC50 at 24 h

Indicate the recorded CC50 at 24 h value for this compound: `CCOP(=S)(OCC)O/N=C(\C#N)c1ccccc1`
> 90 µM

----------
assayComment: in vitro
conditionDescription: rat, gh3-tre-luc cells, AC50 (uM) modified / 1000, Tox21_110001=Tox21_400075; viability, 1 nM T3 present, 24 h
measurementKind: CC50 at 24 h
Your answer should be a number followed by the unit of measure.

Please list CC50 at 24 h recorded for the compound `COc1ccc(C(c2ccc(OC)cc2)C(Cl)(Cl)Cl)cc1`
76.1 µM

----------
System: GH3-TRE-Luc cell line
conditionDescription: read-out: AC50 (uM) modified / 1000; Tox21_110001=Tox21_113236; viability, 1 nM T3 present, 24 h
measurementKind: CC50 (µM)
Numbers only, in µM.

Give CC50; test system GH3-TRE-Luc cell line; compound `COc1cc2c(cc1O)CCN[C@]21CS[C@@H]2c3c(OC(C)=O)c(C)c4c(c3[C@H](COC1=O)N1[C@@H]2[C@H]2c3c(cc(C)c(OC)c3O)C[C@@H]([C@@H]1O)N2C)OCO4`
0.0049

----------
Tested on: GH3-TRE-Luc cell line
conditionDescription: read-out: AC50 (uM) modified / 1000; Tox21_110001=Tox21_302152; viability, 1 nM T3 present, 24 h
measurementKind: CC50 (µM)
Answers are plain numbers, in µM.

# return recorded CC50 for entry `O=C1OC2(c3ccccc31)c1cc(Br)c(O)c(Br)c1Oc1c2cc(Br)c(O)c1Br`
8.28

----------
assayComment: in vitro
conditionDescription: rat, gh3-tre-luc cells, AC50 (uM) modified / 1000
Exercise: state measured CC50 at 24 h for each of the compounds provided.

The cases that follow already have their CC50 at 24 h on record.
compound	CC50 at 24 h
O=C(O)C(=O)Nc1cccc(-c2nnn[nH]2)c1	> 50 µM
CC(c1ccc(O)cc1)c1ccc(O)cc1	> 90 µM
O=CNc1ccccc1 [Formanilide]	> 90 µM
Cc1nccn1-c1ccc(Sc2cccc(C3(C(N)=O)CCOCC3)c2)cc1	42.6 µM
N[C@@H](C(=O)N[C@@H]1C(=O)N2C(C(=O)O)=C(CSc3c[nH]nn3)CS[C@H]12)c1ccc(O)cc1	> 50 µM

Each compound below has a reported value. Please supply its CC50 at 24 h.
1. Nn1cnnc1
2. N#Cc1ccc2c(c1)N(CCCN1CCC(O)CC1)c1ccccc1S2

> 90 µM
14.3 µM

----------
assayComment: in vitro
conditionDescription: rat, gh3-tre-luc cells, AC50 (uM) modified / 1000, Tox21_110001=Tox21_302045; viability, 1 nM T3 present, 24 h
Where a name gives a salt, the structure may show the parent alone.
measurementKind: CC50 at 24 h

Please indicate CC50 at 24 h recorded for NCCOS(=O)(=O)O [2-Aminoethyl hydrogen sulfate]
> 90 µM

----------
Test system: GH3-TRE-Luc cell line
conditionDescription: read-out: AC50 (uM) modified / 1000; Tox21_110001=Tox21_112749; viability, 1 nM T3 present, 24 h
measurementKind: CC50 (µM)
Give bare numbers, in µM.

Output measured CC50 for this item: `O=C(Nc1cccc(C(F)(F)F)c1)c1cc(Br)cc(Br)c1O`
3.92

----------
System: GH3-TRE-Luc cell line
conditionDescription: read-out: AC50 (uM) modified / 1000; Tox21_110001=Tox21_113585; viability, 1 nM T3 present, 24 h
Counter-ions that a name gives are not always drawn.
measurementKind: CC50 (µM)
One number for each entry, in µM.

Provide one value: measured CC50 of CCc1cc(Cl)c(OC)c(C(=O)NC[C@@H]2CCCN2CC)c1O [Eticlopride hydrochloride]
33.6

The reported measurements were obtained from paper PMC6792352.
